tested on: VSV; type: cell-based, Vesicular stomatitis virus; details: C6 Glia; moi = 1; 8 h pi
What VSV in supernatant was measured for each of the following?

{"columns": ["compoundString", "targetEntity", "VSV in supernatant"],
 "data": [
  ["c1ccc2[nH]ncc2c1", "VSV", "4.48 ± .17 log10 PFU"],
  ["CN[C@@H](CCCNC(=N)N)C(=O)O", "VSV", "5.38 ± .37 log10 PFU"],
  ["O=[N+]([O-])c1cccc2cn[nH]c12", "VSV", "4.59 ± .52 log10 PFU"]
]}

Would you kindly look at the next entry?
`CN[C@H](CC(=O)O)C(=O)O` yielded VSV in supernatant of 5.54 ± .24 log10 PFU
